# key: entry, value: pKd
# System Name: CD38 (antigen of the Bioveris affinity determination) (Homo sapiens (Human), UniProt P28907 45-300, limits assumed)
# Protocol Description: Bioveris, Fab format
The scale used: pKd is minus the common logarithm of the concentration in molar units.

Some binders with known pKd results, for comparison:
Binder	pKd
MOR06185 Fab (Fab, V domains shown, Fab format) VH: QVQLVESGGGLVQPGGSLRLSCAASGFTFSSYYMNWVRQAPGKGLEWVSAISMNGDYISYADSVKGRFTISRDNSKNTLYLQMNSLRAEDTAVYYCARDLPLVYTGFAYWGQGTLVTVSS VL: DIELTQPPSVSVAPGQTARISCSGDNLRHYYVYWYQQKPGQAPVLVIYGDSKRPSGIPERFSGSNSGNTATLTISGTQAEDEADYYCQTYTGGASLVFGGGTKLTVL	10.86
MOR06214 Fab (Fab, V domains shown, Fab format) VH: QVQLVESGGGLVQPGGSLRLSCAASGFTFSSYAMNWVRQAPGKGLEWVSNIQRVGSTYYADSVKGRFTISRDNSKNTLYLQMNSLRAEDTAVYYCAREDGSYMTDYFAYWGQGTLVTVSS VL: DIELTQPPSVSVAPGQTARISCSGDNIGHYYVSWYQQKPGQAPVLVIYSDSNRPSGIPERFSGSNSGNTATLTISGTQAEDEADYYCQSYNGTYVFGGGTKLTVL	10.03
MOR06195 Fab (Fab, V domains shown, Fab format) VH: QVQLVESGGGLVQPGGSLRLSCAASGFTFSSYYMNWVRQAPGKGLEWVSAISGNGGHTYYADSVKGRFTISRDNSKNTLYLQMNSLRAEDTAVYYCARDLPLVYTGFAYWGQGTLVTVSS VL: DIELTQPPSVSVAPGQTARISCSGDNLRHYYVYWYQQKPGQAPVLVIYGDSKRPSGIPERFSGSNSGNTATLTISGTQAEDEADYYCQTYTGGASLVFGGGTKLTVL	10.25

Q) What pKd value was documented for this binder, MOR06201 Fab (Fab, V domains shown, Fab format) VH: QVQLVESGGGLVQPGGSLRLSCAASGFTFSSYYMNWVRQAPGKGLEWVSAISMHGDTTYYADSVKGRFTISRDNSKNTLYLQMNSLRAEDTAVYYCARDLPLVYTGFAYWGQGTLVTVSS VL: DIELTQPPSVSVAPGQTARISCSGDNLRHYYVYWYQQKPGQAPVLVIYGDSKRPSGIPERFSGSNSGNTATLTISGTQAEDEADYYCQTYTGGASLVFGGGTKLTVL ?
A) 10.73
